# Tested on: TRPC4 (transient receptor potential cation channel C4 beta), mouse
# TEST PROTOCOL: potentiation of DAMGO EC20 TRPC4 response – cell-based, second round, Fluo-4, HEK293 TRPC4beta/mu-opioid, 1 µM, confirmation (AID 2554)
# CONDITIONS: DAMGO EC20, Fluo-4 calcium flux, at 1 µM
Calls of active or inactive are those of the source.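 How the source made its calls: active means primary screen hit whose fluorescence ratio, in both repeats, exceeds the weak agonist control mean by 3 SD; inactive means the rest.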

COMPOUND | ASSAY TARGET | potentiation
CCOC(=O)C1(CCCc2ccccc2)CCN(Cc2cnn(C)c2)CC1 | TRPC4 (transient receptor potential cation channel C4 beta), mouse | inactive
c1ccc(Cn2nnnc2C(c2cccnc2)N2CCN(C3CCCCC3)CC2)cc1 (centres undefined) | TRPC4 (transient receptor potential cation channel C4 beta), mouse | inactive
CCCCC[n+]1cccc2c3ccccc3ccc21 | TRPC4 (transient receptor potential cation channel C4 beta), mouse | inactive
O=C(OC1C2CCC1C1CN(CCc3ccccc3)CC12)c1ccccc1 (centres undefined) | TRPC4 (transient receptor potential cation channel C4 beta), mouse | inactive
COc1ccccc1CNCC(c1ccccc1)c1ccccc1 | TRPC4 (transient receptor potential cation channel C4 beta), mouse | inactive
CN(C)CCOc1cc(Cl)cc(Cl)c1 | TRPC4 (transient receptor potential cation channel C4 beta), mouse | inactive
CN(C)c1ccc(C(CNC(=O)Cc2cccc3ccccc23)N(C)C)cc1 (centres undefined) | TRPC4 (transient receptor potential cation channel C4 beta), mouse | inactive
CCN(CC)CCOCCOc1ccc(Cl)c2ccccc12 | TRPC4 (transient receptor potential cation channel C4 beta), mouse | inactive
COC(=O)C(CC(=O)Nc1cc(C)ccc1C)Nc1ccccc1OC (centres undefined) | TRPC4 (transient receptor potential cation channel C4 beta), mouse | inactive
O=C(Nc1cccc(C(F)(F)F)c1)c1cccc(NS(=O)(=O)c2ccc(O)c(C(=O)O)c2)c1 | TRPC4 (transient receptor potential cation channel C4 beta), mouse | inactive
CCCn1nc(C(=O)NC2CCCc3ccccc32)c2ccccc2c1=O (centres undefined) | TRPC4 (transient receptor potential cation channel C4 beta), mouse | inactive
Oc1ccc(CN2CCc3ccccc3C2)c2cccnc12 | TRPC4 (transient receptor potential cation channel C4 beta), mouse | inactive
Cc1ccc(CNC(=O)CSc2nc(=O)n3ccccc3n2)cc1 | TRPC4 (transient receptor potential cation channel C4 beta), mouse | inactive
CC(C)(c1ccccc1)c1ccc(OCCCNCCO)cc1 | TRPC4 (transient receptor potential cation channel C4 beta), mouse | inactive
CCCCN1CCc2c1nc1ccc(Br)cc1c2N | TRPC4 (transient receptor potential cation channel C4 beta), mouse | inactive
CSCCNC(=O)c1ccc(OC2CCN(CCc3ccccc3)CC2)cc1 | TRPC4 (transient receptor potential cation channel C4 beta), mouse | inactive
O=[N+]([O-])c1ccc(O)c(C2=NNC(c3ccccc3F)C2)c1 (centres undefined) | TRPC4 (transient receptor potential cation channel C4 beta), mouse | inactive
C#Cc1ccc(CN2CCCC(C(=O)Nc3ccccc3Oc3cccnc3)C2)cc1 (centres undefined) | TRPC4 (transient receptor potential cation channel C4 beta), mouse | inactive
CCOc1ccccc1C(=O)NCCc1cnc[nH]1 | TRPC4 (transient receptor potential cation channel C4 beta), mouse | inactive
O=C(COC(=O)c1c(Cl)cccc1Cl)Nc1ccccc1Br | TRPC4 (transient receptor potential cation channel C4 beta), mouse | inactive
CCCCN(CC)CCNC(=O)Cn1cc2c(n1)-c1c(oc(C(=O)N3CCCC3)c1C)CC2 | TRPC4 (transient receptor potential cation channel C4 beta), mouse | inactive
CCCNc1nc2ccccc2n2c(C)nnc12 | TRPC4 (transient receptor potential cation channel C4 beta), mouse | inactive
Cc1ccc(CNC(=O)CCC2CCCN(Cc3cc4ccccc4o3)C2)o1 (centres undefined) | TRPC4 (transient receptor potential cation channel C4 beta), mouse | inactive
Cc1ccc(C)c2[nH]c(=O)c(CN(Cc3nnnn3C3CCCCC3)CC3CCCO3)cc12 (centres undefined) | TRPC4 (transient receptor potential cation channel C4 beta), mouse | inactive
